target under test: PDE V (Bos taurus)
Construct: Purification was carried out by anion exchange chromatography over MonoQ; from tissue; host or cells: porcine small intestine, porcine aorta, human platelets or, preferably, bovine aorta
assay remarks: Inhibition of the phosphodiesterases in vitro: cGMP-specific PDE V
Assay type: biochemical, porcine, human or, preferably, bovine
condition summary: [3H]cGMP substrate; concentration at which the reaction rate is reduced by 50%
experimental endpoint: IC50 (nM)
Report only the number, with the unit nM understood.

{"columns": ["molecule", "IC50 / nM"],
 "data": [
  ["CCCc1nc(C)c2c(=O)[nH]c(-c3cc(S(=O)(=O)N4CCN(CCO)CC4)ccc3OCC)nn12 [Example 27]", 3]
]}

Ask | # lookup: IC50 of CCCc1nc(C)c2c(=O)[nH]c(-c3cc(S(=O)(=O)N4CCOCC4)ccc3OCC)nn12 [Example 260]
Reply | 10

Ask | # lookup: IC50 of CCCc1nc(C)c2c(=O)[nH]c(-c3cc(S(=O)(=O)N4CCN(C)CC4)ccc3OCC)nn12 [Example 16]
Reply | 2

Ask | # lookup: IC50 of CCCc1nc(C)c2c(=O)[nH]c(-c3cc(S(=O)(=O)N(CC)CC)ccc3OCC)nn12 [Example 32]
Reply | 4
